Assignment: determine reported self-aminoacylation for the given sequences.
- Test system: biotinyl-Trp-oxazolone
- testProtocol: self-aminoacylation, catalytic enhancement (BWO) (fold over background); higher = more active; k-Seq, kA / k0A0; sequences stand for … in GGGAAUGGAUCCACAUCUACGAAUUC…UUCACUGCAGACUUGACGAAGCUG
Fewer inactive variants are shown than the library holds.
Answers are plain numbers.

See these solved cases before continuing.
querySequence: AUUACCCUCGUAAUCGAGUGA [Fam2.1 aminoacylation ribozyme variant]
self-aminoacylation: 21.7
--
querySequence: AGUGACCUAGGUCAUCGGGUG [Fam2.2 aminoacylation ribozyme variant]
self-aminoacylation: 4.64
--
querySequence: CUACUUAAAACCAUCGGUCUG [Fam1A.1 aminoacylation ribozyme variant]
self-aminoacylation: 1.36

Each of the following entries comes with a recorded value; kindly state self-aminoacylation for each.
1. CCACAUUUCAAGCAACCGGUC [Fam1B.1 aminoacylation ribozyme variant]
2. CCACACUUCAAUCAAUCGAUC [Fam1B.1 aminoacylation ribozyme variant]
3. AGGUUUGCUAAUAGUCGCAAA [Fam3.1 aminoacylation ribozyme variant]
4. CUACUUCAAACCAUCCGUCUG [Fam1A.1 aminoacylation ribozyme variant]
5. AAGUUUGCUAAUACUCGCCAG [Fam3.1 aminoacylation ribozyme variant]

// result
1: 1.34; 2: 0.592; 3: 1.92; 4: 0.802; 5: 0.773

* * *

- System: biotinyl-Leu-oxazolone
- testProtocol: self-aminoacylation, catalytic enhancement (BLO) (fold over background); higher = more active; k-Seq, kA / k0A0; sequences stand for … in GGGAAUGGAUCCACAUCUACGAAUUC…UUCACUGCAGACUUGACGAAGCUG
Variants at the floor of the assay were thinned out.
measure: self-aminoacylation
Answers are plain numbers.

querySequence: AAGUUUGCUAAUAGUCGCAAG [Fam3.1 aminoacylation ribozyme variant]
measure: self-aminoacylation
measuredNumber: 1.01

Each of the following entries comes with a recorded value; kindly state self-aminoacylation for each.
1. AUUACCCUGGUCAACUAGUGA [Fam2.1 aminoacylation ribozyme variant]
2. AACUUUGCUAAUAGUCGCCAG [Fam3.1 aminoacylation ribozyme variant]
3. AUUACCGAGGUCAUCGAGUGA [Fam2.1 aminoacylation ribozyme variant]
4. AUUCUCCUAUGUCAUCGGGUG [Fam2.2 aminoacylation ribozyme variant]

// result
1. 6.83
2. 3.5
3. 8.4
4. 11.6

Each of the following entries comes with a recorded value; kindly state self-aminoacylation for each.
1. GUACUUCAAACACUCGGUCUG [Fam1A.1 aminoacylation ribozyme variant]
2. AACUUUGCUAAUAGUCGCAUG [Fam3.1 aminoacylation ribozyme variant]
3. GUACACCUAGGUCAUCGGGUG [Fam2.2 aminoacylation ribozyme variant]
4. AAGUAUGCUAAUAAUCGCAAG [Fam3.1 aminoacylation ribozyme variant]

// result
1.64
2.79
2.69
1.14

* * *

- System: biotinyl-Met-oxazolone
- testProtocol: self-aminoacylation, catalytic enhancement (BMO) (fold over background); higher = more active; k-Seq, kA / k0A0; sequences stand for … in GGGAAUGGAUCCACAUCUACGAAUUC…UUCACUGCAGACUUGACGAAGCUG
Fewer inactive variants are shown than the library holds.
measure: self-aminoacylation
One number for each entry.

Each of the following entries comes with a recorded value; kindly state self-aminoacylation for each.
1. AUUAAUCUGGUCAUCGAGUGA [Fam2.1 aminoacylation ribozyme variant]
2. UUUCACCGAGGUCAUCGGGUG [Fam2.2 aminoacylation ribozyme variant]
3. CCGGACUUCAAGCAAUCGGUC [Fam1B.1 aminoacylation ribozyme variant]
4. AUUAGCCUGGUCAACGAGUGA [Fam2.1 aminoacylation ribozyme variant]
5. CCCCACUUCAAGCAAUCGGUC [Fam1B.1 aminoacylation ribozyme variant]
6. AUUCACCUUGGUCCUCGGGUG [Fam2.2 aminoacylation ribozyme variant]
7. CCACACUCCACGCAAUCGGUC [Fam1B.1 aminoacylation ribozyme variant]
8. CGACUUCAAACAAUUGGUCUG [Fam1A.1 aminoacylation ribozyme variant]

// result
1. 4.7
2. 7.19
3. 1.31
4. 5.21
5. 1.48
6. 5.93
7. 1
8. 0.91

* * *

- Test system: biotinyl-Ile-oxazolone
- testProtocol: self-aminoacylation, catalytic enhancement (BIO) (fold over background); higher = more active; k-Seq, kA / k0A0; sequences stand for … in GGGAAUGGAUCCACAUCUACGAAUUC…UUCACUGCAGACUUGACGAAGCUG
This sample holds only a part of the variants without activity.
Everything with self-aminoacylation lower than 2 is 0 (no); everything else, including exactly 2, is 1 (yes).

Example results:
querySequence: AUUCAGCUAGGUCAUCGGGCG [Fam2.2 aminoacylation ribozyme variant]
qualitativeLabel: 1 (yes)
//
querySequence: AUUCACCUAGGUUAUCGGAUG [Fam2.2 aminoacylation ribozyme variant]
qualitativeLabel: 0 (no)

// query Does the reported self-aminoacylation for GUUACACUGGUCAUCGAGUGA [Fam2.1 aminoacylation ribozyme variant] fall at or above the 2 mark?
// result 1 (yes)

// query Next sequence up: AUUACCCUGGGCAUGGAGUGA [Fam2.1 aminoacylation ribozyme variant]
// result 1 (yes)

// query Next sequence up: AUUAGCCUGGUAAUCGAGUGA [Fam2.1 aminoacylation ribozyme variant]
// result 1 (yes)

// query Next sequence up: AUUAGCCUGGUCAUCGACUGA [Fam2.1 aminoacylation ribozyme variant]
// result 0 (no)

// query Next sequence up: GUUACCCUCGUCAUCGAGUGA [Fam2.1 aminoacylation ribozyme variant]
// result 1 (yes)

// query Next sequence up: CUAGUUCAAACGAUCGGUCUG [Fam1A.1 aminoacylation ribozyme variant]
// result 0 (no)

// query Next sequence up: AUUCACCCAUGUCAUCGGGUG [Fam2.2 aminoacylation ribozyme variant]
// result 1 (yes)

// query Next sequence up: AACUUCGCUAAUAGUCGCAAG [Fam3.1 aminoacylation ribozyme variant]
// result 1 (yes)

// query Next sequence up: AUUACCCUGGUCUUCGAGUGG [Fam2.1 aminoacylation ribozyme variant]
// result 0 (no)

* * *

- System: biotinyl-Leu-oxazolone
- testProtocol: self-aminoacylation, catalytic enhancement (BLO) (fold over background); higher = more active; k-Seq, kA / k0A0; sequences stand for … in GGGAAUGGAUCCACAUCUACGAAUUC…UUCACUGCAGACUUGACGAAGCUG
Fewer inactive variants are shown than the library holds.
measure: self-aminoacylation
Give bare numbers.

querySequence: CCACACUUAUAGCAAUCGGUC [Fam1B.1 aminoacylation ribozyme variant]
self-aminoacylation: 0.722

querySequence: CUACUGCAAACAAUGGGUCUG [Fam1A.1 aminoacylation ribozyme variant]
self-aminoacylation: 1.13

querySequence: GCACACCUCAAGCAAUCGGUC [Fam1B.1 aminoacylation ribozyme variant]
self-aminoacylation: 1.23

querySequence: CAACUUCAACCAAUCGGUCUG [Fam1A.1 aminoacylation ribozyme variant]
self-aminoacylation: 2.41

querySequence: AUAUUUCAAACAAUCGGUCUG [Fam1A.1 aminoacylation ribozyme variant]
self-aminoacylation: 0.891

querySequence: AUUCACCUAGGUCAUGGCGUG [Fam2.2 aminoacylation ribozyme variant]
self-aminoacylation: 13.2

querySequence: CUACUUCAAACAAUCGGACUA [Fam1A.1 aminoacylation ribozyme variant]
self-aminoacylation: 0.617

querySequence: AUGUUUGCUAAUCGUCGCAAG [Fam3.1 aminoacylation ribozyme variant]
self-aminoacylation: 1.32

Each of the following entries comes with a recorded value; kindly state self-aminoacylation for each.
1. CUACUUCUAACAAUCGGUCGG [Fam1A.1 aminoacylation ribozyme variant]
2. CUGUUUCAAACAAUCGGUCUG [Fam1A.1 aminoacylation ribozyme variant]
3. AUUACCCUGGUCGUCGAGUCA [Fam2.1 aminoacylation ribozyme variant]

// result
[0.978, 2.48, 0.956]

Each of the following entries comes with a recorded value; kindly state self-aminoacylation for each.
1. AAAUUUGCUAAUAGUUGCAAG [Fam3.1 aminoacylation ribozyme variant]
2. AUUACCCUGGUCAUAGAGUCA [Fam2.1 aminoacylation ribozyme variant]
3. AUUCAUCUAGGUCAUCGGGUA [Fam2.2 aminoacylation ribozyme variant]
4. AAGUUCGCUAAUGGUCGCAAG [Fam3.1 aminoacylation ribozyme variant]
5. CAGUUUGCUAAUAGUCGCACG [Fam3.1 aminoacylation ribozyme variant]

// result
1. 1.08
2. 0.962
3. 5.18
4. 1.8
5. 1.35

Each of the following entries comes with a recorded value; kindly state self-aminoacylation for each.
1. ACACAUUUCAAGCAAUCGGUC [Fam1B.1 aminoacylation ribozyme variant]
2. CCACUCUUCAAGCAAUCGGCC [Fam1B.1 aminoacylation ribozyme variant]

// result
1. 1.12
2. 2.23

* * *

- Tested on: biotinyl-Met-oxazolone
- testProtocol: self-aminoacylation, catalytic enhancement (BMO) (fold over background); higher = more active; k-Seq, kA / k0A0; sequences stand for … in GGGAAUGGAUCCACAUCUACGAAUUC…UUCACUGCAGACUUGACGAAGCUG
This sample holds only a part of the variants without activity.
Everything with self-aminoacylation lower than 0.8 is N; everything else, including exactly 0.8, is Y.

Example results:
querySequence: AUUCGCCUAGGUCUUCGGGUG [Fam2.2 aminoacylation ribozyme variant]
systemUnderTest: biotinyl-Met-oxazolone
qualitativeLabel: Y
--
querySequence: CUACCUCAAACACUCGGUCUG [Fam1A.1 aminoacylation ribozyme variant]
systemUnderTest: biotinyl-Met-oxazolone
qualitativeLabel: Y
--
querySequence: ACGUUUGCUAAGAGUCGCAAG [Fam3.1 aminoacylation ribozyme variant]
systemUnderTest: biotinyl-Met-oxazolone
qualitativeLabel: Y
--
querySequence: AAGUUUGCACAUAGUCGCAAG [Fam3.1 aminoacylation ribozyme variant]
systemUnderTest: biotinyl-Met-oxazolone
qualitativeLabel: N
--
querySequence: AUCACCCUGGUCAUCUAGUGA [Fam2.1 aminoacylation ribozyme variant]
systemUnderTest: biotinyl-Met-oxazolone
qualitativeLabel: Y

// query Does the reported self-aminoacylation for AAAUUUGCUAAUAGUCCCAAG [Fam3.1 aminoacylation ribozyme variant] fall at or above the 0.8 mark?
// result N

// query Next sequence up: AUUACCCUGGUCAUCGAGUGG [Fam2.1 aminoacylation ribozyme variant]
// result Y

// query Next sequence up: CUACUUCAAGCAAUCGGGCUG [Fam1A.1 aminoacylation ribozyme variant]
// result Y
